B1: VH:VL chains; a variant is named by its letters at X, in order (parent)
chain 1: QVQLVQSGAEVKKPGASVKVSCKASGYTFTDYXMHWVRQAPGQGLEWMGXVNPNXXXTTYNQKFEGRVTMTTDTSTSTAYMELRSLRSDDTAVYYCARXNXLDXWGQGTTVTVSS
chain 2: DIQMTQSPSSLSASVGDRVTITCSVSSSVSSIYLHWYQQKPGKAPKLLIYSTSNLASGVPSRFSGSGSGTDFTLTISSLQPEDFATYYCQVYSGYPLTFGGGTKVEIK

variants of: B1; experiment: yeast display scFab, FACS + sequencing
reported-property: non-specific binding call

Study these solved cases before continuing.
Just so you know, measured non-specific binding call for YRTAGAAD came out at binds

Quick note, non-specific binding call for AATTDSSS landed at no binding

# non-specific binding call of YRKGDSLD = binds

# non-specific binding call of VTGTASSV = no binding

The variant listed as SEEGTAGA has a reported non-specific binding call of no binding

New cases:
The variant listed as AKGTASGD has a reported non-specific binding call of binds

Briefly, non-specific binding call measured for DGGKNDAV : no binding

For reference, reported non-specific binding call for VKKRGAWS stands at binds

Looking up DEGGTAGA , I found its non-specific binding call recorded as no binding

Note to self: non-specific binding call recorded for YRGRDSSS was binds
